- target entity: rat μ opioid receptors (rMOR) (Rattus norvegicus, UniProt P33535)
- Construct: expressed in transfected cells; host or cells: HN9.10 neuroblastoma cell line, pCDNA3, neomycin-selected clones
- Sequence (P33535 whole entry): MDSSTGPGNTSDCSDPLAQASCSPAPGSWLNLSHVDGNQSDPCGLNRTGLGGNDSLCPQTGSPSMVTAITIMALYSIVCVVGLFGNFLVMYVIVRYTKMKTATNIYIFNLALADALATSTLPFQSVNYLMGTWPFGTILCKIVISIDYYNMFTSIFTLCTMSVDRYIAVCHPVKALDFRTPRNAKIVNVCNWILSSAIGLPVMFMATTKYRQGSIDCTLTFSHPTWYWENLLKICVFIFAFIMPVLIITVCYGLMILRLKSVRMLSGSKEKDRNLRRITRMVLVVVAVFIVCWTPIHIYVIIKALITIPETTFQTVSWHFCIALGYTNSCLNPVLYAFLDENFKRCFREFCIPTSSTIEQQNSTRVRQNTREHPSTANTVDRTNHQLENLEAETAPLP
- measurement notes: Radioligand competition binding, [3H]DAMGO, rMOR membranes
Peptide text beside a SMILES is read from it.
Ki less than 0.2 µM is class 1; Ki greater than or equal to 0.2 µM is class 0.

Answered cases to consult:
CSCC[C@H](NC(=O)[C@H](Cc1ccccc1)NC(=O)CNC(=O)[C@@H](C)NC(=O)[C@@H](N)Cc1c(C)cc(O)cc1C)C(=O)N1CCC[C@H]1C(=O)N[C@@H](CC(C)C)C(=O)N[C@@H](Cc1c[nH]c2ccccc12)C(=O)NCc1ccccc1 [TY034] ... class 1
CC(C)C[C@H](NC(=O)[C@@H]1CCCN1C(=O)[C@H]1NC(=O)[C@H](Cc2ccccc2)NC(=O)CNC(=O)[C@H](NC(=O)[C@@H](N)Cc2ccc(O)cc2)C(C)(C)SSC1(C)C)C(=O)N[C@@H](Cc1c[nH]c2ccccc12)C(=O)NCc1cc(C(F)(F)F)cc(C(F)(F)F)c1 [TY046] ... class 0
CCCC[C@@H]1NC(=O)[C@H](Cc2ccccc2)NC(=O)CNC(=O)[C@H](NC(=O)[C@@H](N)Cc2ccc(O)cc2)CSSC[C@H](C(=O)N[C@@H](Cc2c[nH]c3ccccc23)C(=O)NCc2cc(C(F)(F)F)cc(C(F)(F)F)c2)NC(=O)[C@@H]2CCCN2C1=O [TY038, [D-Cys^2, D-Cys^7]TY027] (HELM PEPTIDE1{Y.[dC].G.F.[Nle].P.[dC].W.[FC(F)(F)c1cc(CN[*:1])cc(C(F)(F)F)c1]}$PEPTIDE1,PEPTIDE1,2:R3-7:R3$$$V2.0; N-terminus assumed) ... class 1

Task item: Take the molecule CC(C)C[C@H](NC(=O)[C@@H]1CCCN1C(=O)[C@H](CC(C)C)NC(=O)[C@H](Cc1ccccc1)NC(=O)CNC(=O)[C@@H](C)NC(=O)[C@@H](N)Cc1ccc(O)cc1)C(=O)N[C@@H](Cc1c[nH]c2ccccc12)C(=O)OCc1cc(C(F)(F)F)cc(C(F)(F)F)c1 [TY004] and say whether its Ki is less than 0.2 µM.
Reply: class 1

Task item: Then this molecule: CC(C)C[C@H](NC(=O)[C@@H]1CCCN1C(=O)[C@@H](Cc1ccccc1)NC(=O)[C@H](Cc1ccccc1)NC(=O)CNC(=O)[C@@H](C)NC(=O)[C@@H](N)Cc1ccc(O)cc1)C(=O)N[C@@H](Cc1c[nH]c2ccccc12)C(=O)OCc1cc(C(F)(F)F)cc(C(F)(F)F)c1 [TY007]
Reply: class 0

###

Would you mind telling me the reported pKi of each entry?
- target entity: human NK1 receptor (hNK1) (Homo sapiens)
- Construct: expressed in transfected cells
- Sequence (P25103 whole entry): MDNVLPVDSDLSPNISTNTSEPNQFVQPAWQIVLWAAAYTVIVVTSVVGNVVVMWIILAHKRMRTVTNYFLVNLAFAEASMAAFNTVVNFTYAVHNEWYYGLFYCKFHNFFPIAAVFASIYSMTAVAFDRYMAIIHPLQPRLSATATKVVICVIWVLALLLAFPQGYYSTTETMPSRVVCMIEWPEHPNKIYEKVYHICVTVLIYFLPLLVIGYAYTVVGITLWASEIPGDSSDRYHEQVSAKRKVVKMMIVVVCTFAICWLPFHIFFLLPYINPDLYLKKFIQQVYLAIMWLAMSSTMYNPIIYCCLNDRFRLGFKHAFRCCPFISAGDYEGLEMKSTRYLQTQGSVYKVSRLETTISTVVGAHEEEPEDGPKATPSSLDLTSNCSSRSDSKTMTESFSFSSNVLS
- measurement notes: Radioligand competition binding, [3H]-Substance P, hNK1
Peptide text beside a SMILES is read from it.
Answers are plain numbers, as −log10 of the molar value.

Completed entries (count: 2):
CCCC[C@H](NC(=O)[C@H](Cc1ccccc1)NC(=O)CNC(=O)[C@@H](C)NC(=O)[C@@H](N)Cc1ccc(O)cc1)C(=O)N[C@@H](COC1O[C@H](CO)[C@@H](O)[C@H](O)[C@H]1O)C(=O)N[C@@H](CC(C)C)C(=O)N[C@@H](Cc1c[nH]c2ccccc12)C(=O)NCc1cc(C(F)(F)F)cc(C(F)(F)F)c1 (stereo partly drawn) ... 8.89
CSCC[C@H](NC(=O)[C@H](Cc1ccccc1)NC(=O)CNC(=O)[C@@H](C)NC(=O)[C@@H](N)Cc1c(C)cc(O)cc1C)C(=O)N1CCC[C@H]1C(=O)N[C@@H](CC(C)C)C(=O)N[C@@H](Cc1c[nH]c2ccccc12)C(=O)NCc1cc(C(F)(F)F)cc(C(F)(F)F)c1 ... 11.10

Here's the next entry for you.
Task item: Which pKi value belongs to C[C@@H](NC(=O)[C@@H](N)Cc1ccc(O)cc1)C(=O)NCC(=O)N[C@@H](Cc1ccccc1)C(=O)NCCCC(=O)N[C@@H](Cc1c[nH]c2ccccc12)C(=O)OCc1cc(C(F)(F)F)cc(C(F)(F)F)c1 [NP34] (HELM PEPTIDE1{Y.[dA].G.F.[O=C(CCCN[*:1])[*:2]].W.[FC(F)(F)c1cc(CO[*:1])cc(C(F)(F)F)c1]}$$$$V2.0; N-terminus assumed) ?
Reply: 12.00

###

- target entity: human NK1 receptor (hNK1) (Homo sapiens)
- Construct: expressed in transfected cells
- measurement notes: Radioligand competition binding, [3H]-Substance P, hNK1
- setup conditions: read-out: Ki, hNK1
Peptide text beside a SMILES is read from it.
measurement kind: pKi
Numbers only, as −log10 of the molar value.

Look at each compound and report its pKi.
1. CCCC[C@@H]1NC(=O)[C@H](Cc2ccccc2)NC(=O)CNC(=O)[C@H](NC(=O)[C@@H](N)Cc2ccc(O)cc2)CSSC[C@@H](C(=O)N[C@@H](Cc2c[nH]c3ccccc23)C(=O)NCc2cc(C(F)(F)F)cc(C(F)(F)F)c2)NC(=O)[C@@H]2CCCN2C1=O [TY035, [D-Cys^2, Cys^7]TY027] (HELM PEPTIDE1{Y.[dC].G.F.[Nle].P.C.W.[FC(F)(F)c1cc(CN[*:1])cc(C(F)(F)F)c1]}$PEPTIDE1,PEPTIDE1,2:R3-7:R3$$$V2.0; N-terminus assumed)
2. CCCC[C@@H]1NC(=O)[C@H](Cc2ccccc2)NC(=O)CNC(=O)[C@H](NC(=O)[C@@H](N)Cc2ccc(O)cc2)CSSC[C@H](C(=O)N[C@@H](Cc2c[nH]c3ccccc23)C(=O)NCc2cc(C(F)(F)F)cc(C(F)(F)F)c2)NC(=O)[C@@H]2CCCN2C1=O [TY038, [D-Cys^2, D-Cys^7]TY027] (HELM PEPTIDE1{Y.[dC].G.F.[Nle].P.[dC].W.[FC(F)(F)c1cc(CN[*:1])cc(C(F)(F)F)c1]}$PEPTIDE1,PEPTIDE1,2:R3-7:R3$$$V2.0; N-terminus assumed)

Reply:
10.00
9.60

Look at each compound and report its pKi.
1. CC(C)C[C@H](NC(=O)[C@@H]1CCCN1C(=O)[C@H](Cc1ccccc1)NC(=O)CNC(=O)[C@@H](C)NC(=O)[C@@H](N)Cc1ccc(O)cc1)C(=O)N[C@@H](Cc1c[nH]c2ccccc12)C(=O)NCc1ccccc1 [TY008, H-Tyr-DAla-Gly-Phe-Pro-Leu-Trp-NH-Bzl]
2. CC(C)C[C@H](NC(=O)[C@@H]1CCCN1C(=O)[C@H](Cc1ccccc1)NC(=O)CNC(=O)[C@@H](C)NC(=O)[C@@H](N)Cc1ccc(O)cc1)C(=O)N[C@@H](Cc1c[nH]c2ccccc12)C(=O)N(C)Cc1ccccc1 [TY010, H-Tyr-D-Ala-Gly-Phe-Pro-Leu-Trp-NMe-Bzl]

Reply:
1. 7.85
2. 8.80

###

- target entity: rat μ opioid receptors (rMOR) (Rattus norvegicus, UniProt P33535)
- Construct: expressed in transfected cells; host or cells: HN9.10 neuroblastoma cell line, pCDNA3, neomycin-selected clones
- measurement notes: Radioligand competition binding, [3H]DAMGO, rMOR membranes
- setup conditions: Table 33; read-out: Ki (nM) rMOR
measurement kind: Ki (nM)
Answers are plain numbers, in nM.

Task item: Which Ki value belongs to `C[C@@H](NC(=O)[C@@H](N)Cc1ccc(O)cc1)C(=O)N[C@@H](Cc1c[nH]c2ccccc12)C(=O)OCc1cc(C(F)(F)F)cc(C(F)(F)F)c1` ?
Reply: 178

###

Would you mind telling me the reported IC50 of each entry?
- target entity: rat NK1 (rNK1) receptor (Rattus norvegicus, UniProt P14600)
- Construct: expressed in transfected cells; host or cells: CHO (rNK-1/CHO cell line from Dr. James Krause)
- Sequence (P14600 whole entry): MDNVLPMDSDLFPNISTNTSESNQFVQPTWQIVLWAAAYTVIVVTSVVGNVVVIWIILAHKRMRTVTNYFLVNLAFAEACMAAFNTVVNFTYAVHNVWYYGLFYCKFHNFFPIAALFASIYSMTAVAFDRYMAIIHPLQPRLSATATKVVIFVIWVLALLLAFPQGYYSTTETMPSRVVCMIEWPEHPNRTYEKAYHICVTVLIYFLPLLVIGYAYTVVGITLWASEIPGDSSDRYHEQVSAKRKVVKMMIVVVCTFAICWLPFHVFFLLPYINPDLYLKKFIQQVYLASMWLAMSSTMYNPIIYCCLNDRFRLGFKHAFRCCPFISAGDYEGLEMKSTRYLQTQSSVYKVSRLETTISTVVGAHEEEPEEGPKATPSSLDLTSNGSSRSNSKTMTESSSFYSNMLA
- measurement notes: Radioligand competition binding, [3H]substance P, rNK1/CHO membranes
- setup conditions: LogIC50, rNK1, [3H]Substance P, Table 6; logarithm of IC50 (negative); CHO cell membranes
One number for each entry, in nM.

CC(C)C[C@H](NC(=O)[C@@H]1CCCN1C(=O)[C@H](Cc1ccccc1)NC(=O)CNC(=O)[C@@H](C)NC(=O)[C@@H](N)Cc1ccc(O)cc1)C(=O)N[C@@H](Cc1c[nH]c2ccccc12)C(=O)OCc1cc(C(F)(F)F)cc(C(F)(F)F)c1 [TY001] ... 5.01
CC(C)C[C@H](NC(=O)[C@@H]1CCCN1C(=O)[C@H](Cc1ccccc1)NC(=O)CNC(=O)[C@@H](C)NC(=O)[C@@H](N)Cc1ccc(O)cc1)C(=O)N[C@@H](Cc1c[nH]c2ccccc12)C(=O)OCc1ccccc1 [TY011, H-Tyr-DAla-Gly-Phe-Pro-Leu-Trp-O-Bzl] ... 794
CC(C)C[C@H](NC(=O)[C@@H]1CCCN1C(=O)[C@H](Cc1ccccc1)NC(=O)CNC(=O)[C@@H](C)NC(=O)[C@@H](N)Cc1ccc(O)cc1)C(=O)N[C@@H](Cc1c[nH]c2ccccc12)C(=O)N(C)Cc1cc(C(F)(F)F)cc(C(F)(F)F)c1 [TY013] ... 20

Here's the next entry for you.
Task item: Field: IC50 (rat NK1 (rNK1) receptor (Rattus norvegicus, UniProt P14600)). Entry: CC(C)C[C@H](NC(=O)[C@@H]1CCCN1C(=O)[C@H](Cc1ccccc1)NC(=O)CNC(=O)[C@@H](C)NC(=O)[C@@H](N)Cc1ccc(O)cc1)C(=O)N[C@@H](Cc1c[nH]c2ccccc12)C(=O)NCc1cc(C(F)(F)F)cc(C(F)(F)F)c1 [TY012]
Reply: 100
